# assay: small-molecule microarray binders of probe aCHRDL2, primary screen, biochemical, biotinylated probe, 635/667 nm fluorescence (AID 1100)
# run-conditions: higher = more signal
Could you label it y if measured composite z-score is -0.2 or higher, and n otherwise?

Query string: Is composite z-score at least -0.2? Consider CCCCCN1CC=CC23O[C@@H]4/C=C\CCC(C)OC(=O)C4[C@H]2C(=O)N(C(C)CO)[C@@H]3C1=O (stereo partly specified)
Result string: n

Query string: Is composite z-score at least -0.2? Consider "CCOC(=O)C[C@H]1[C@H](OC(=O)c2ccc(C(=O)c3ccccc3)cc2)[C@@H](NC(=O)CC(C)C)c2cc(OCCCO)ccc2N1C(=O)c1ccc2ccccc2n1"
Result string: n

Query string: Is composite z-score at least -0.2? Consider "C=C(CCCC)/C(=C/C[C@@H](OC(C)=O)c1ccc(OCCO)cc1)c1cnc2ccccc2c1"
Result string: y

Query string: Is composite z-score at least -0.2? Consider CN1C(=O)C2C=CC(C(O)C3CC=CCC3)N(N(c3ccccc3)c3ccccc3)C2C1=O (stereo unspecified)
Result string: y

Query string: Is composite z-score at least -0.2? Consider "CC(C)C[C@@H]1NC(=O)[C@@H]2C[C@H](C(=O)O)[C@H](c3cccc(OCCO)c3)N2C1=O"
Result string: y

Query string: Is composite z-score at least -0.2? Consider "O=C(c1ccccc1)N1C(=O)[C@]2(COC(c3ccc(OCCCO)cc3)=N2)Cc2ccccc21"
Result string: y

Query string: Is composite z-score at least -0.2? Consider "C=C[C@H](CO[Si](CC)(CC)CC)N(Cc1ccc(OC(C)=O)c(OC)c1)S(=O)(=O)c1ccc(Br)cc1"
Result string: y

Query string: Is composite z-score at least -0.2? Consider "C=C(CCCC)/C(=C/C[C@H](OC(C)=O)c1ccccc1OCCO)c1cc(C(=O)OC)ccc1OC"
Result string: n

Query string: Is composite z-score at least -0.2? Consider CN1C=C(C(=O)OCCS(C)(=O)=O)C(C(=O)OCCS(C)(=O)=O)=CC(c2ccc(CO)cc2)=CC1C1CC1 (stereo unspecified)
Result string: y

Query string: Is composite z-score at least -0.2? Consider "CNS(=O)(=O)c1ccc(C)cc1"
Result string: n

Query string: Is composite z-score at least -0.2? Consider "C=CCOC(=O)[C@H]1[C@@H]2C(=O)O[C@@H](c3ccccc3)[C@@H](c3ccccc3)N2[C@@H](c2ccc(OCCOC(=O)[C@H]3C[C@H]4C(=O)N[C@@H](CCCC[N+](C)(C)C)C(=O)N4[C@H]3c3ccc(O)cc3)cc2)[C@]12C(=O)Nc1ccc(I)cc12"
Result string: n

Query string: Is composite z-score at least -0.2? Consider "COC(=O)C(CC#Cc1ccc2c(c1)[C@]1(C(=O)N2)[C@H](c2ccc(OCCO)cc2)N2[C@H](c3ccccc3)[C@H](c3ccccc3)OC(=O)[C@H]2[C@@H]1C(=O)Nc1nc2ccccc2s1)C(=O)OC"
Result string: y

Query string: Is composite z-score at least -0.2? Consider "C=C(CCCC)/C(=C/C[C@@H](OC(=O)c1ccncc1)c1ccc(OCCO)cc1)c1cc(C(=O)OC)ccc1OC"
Result string: n

Query string: Is composite z-score at least -0.2? Consider "O=C(c1ccccc1)N1Cc2ccccc2C[C@@]2(COC(c3ccc(OCCCO)cc3)=N2)C1=O"
Result string: y

Query string: Is composite z-score at least -0.2? Consider "C=C(/C(=C/C[C@H](OC(C)=O)c1ccccc1OCCO)c1cnc2ccccc2c1)C(C)C"
Result string: n

Query string: Is composite z-score at least -0.2? Consider "COc1ccc(C#Cc2ccc3c(c2)[C@]2(C(=O)N3)[C@H](C(=O)NC[C@H](O)c3ccccc3)[C@H]3C(=O)O[C@H](c4ccccc4)[C@H](c4ccccc4)N3[C@@H]2c2ccc(O)cc2)cc1"
Result string: y
